# Target or test system: T1, human transferrin (human, UniProt P02787 20-698)
# T1 construct: Immobilized on a CM5 chip by amine coupling (SPR) or coated on a plate (phage ELISA)
# T1 sequence (P02787 20-698 limits assumed): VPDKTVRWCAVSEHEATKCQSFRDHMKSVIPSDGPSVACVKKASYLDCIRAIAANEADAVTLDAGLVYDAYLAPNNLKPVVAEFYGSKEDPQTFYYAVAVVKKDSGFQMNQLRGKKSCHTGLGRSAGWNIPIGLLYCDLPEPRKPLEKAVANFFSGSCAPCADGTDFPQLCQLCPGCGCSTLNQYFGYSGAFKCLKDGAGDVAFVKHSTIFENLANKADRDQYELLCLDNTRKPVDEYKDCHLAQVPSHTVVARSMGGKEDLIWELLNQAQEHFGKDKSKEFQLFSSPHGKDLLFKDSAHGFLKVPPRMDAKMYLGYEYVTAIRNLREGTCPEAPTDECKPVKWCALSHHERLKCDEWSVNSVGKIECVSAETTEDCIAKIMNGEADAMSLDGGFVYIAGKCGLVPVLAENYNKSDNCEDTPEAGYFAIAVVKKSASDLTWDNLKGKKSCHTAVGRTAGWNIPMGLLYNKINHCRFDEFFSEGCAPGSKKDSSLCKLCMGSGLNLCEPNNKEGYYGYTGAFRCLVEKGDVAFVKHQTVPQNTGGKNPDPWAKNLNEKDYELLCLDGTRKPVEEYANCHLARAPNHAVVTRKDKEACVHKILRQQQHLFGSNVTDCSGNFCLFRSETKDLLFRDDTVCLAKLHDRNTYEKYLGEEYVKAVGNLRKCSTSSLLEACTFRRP
# Test method notes: phage display panning and phage ELISA

Binder	binding result
sdAb A13355 (VHH) VHH: QVKLEESGGGLVQAGGSLRLSCVASGSGFGINGVIWYRQAPGKQRELVALIKSDGYTNYRESVRGRFTISRDDAKNTVWLQMNALEPEDTGVYYCKTPGVPFGQGTQVTVSS	binds
sdAb A12659 (VHH) VHH: EVQLVECGGGLVQAGGSLRLSCVASGSGFGINGVIWYRQAPGKQRELVALIKSDGYTNYRESVKGRFTISRDDARNTVWLQMNALEPEDTGVYYCKTPGVPFGQGTQVTVSS	binds
